Test: gradient 5% acetonitrile 3 min, to 50% in 2 min, to 85% in 15 min, held 3 min, 100 µL/min
Details: column: Zorbax Extend-C18 2.1 x 50 mm; eluents: water / acetonitrile, 0.1% formic acid

{"columns": ["compound", "measurement-unit", "RP-LC retention time"],
 "data": [
  ["CC(=O)Nc1nsc(N2CCC(C(=O)N3CCN(c4ccccc4F)CC3)CC2)n1", "s", 695],
  ["CCCCOC(=O)c1cccnc1", "s", 874],
  ["NC(=O)c1cc(-c2ccccc2F)nc2ccccc12", "s", 740],
  ["CCOc1ccc(Nc2nc(-c3c(C)nc4ccccn34)cs2)cc1", "s", 722],
  ["COc1ccc(-c2coc3cc(OCc4ccc([N+](=O)[O-])cc4)ccc3c2=O)cc1OC", "s", 991],
  ["CC(C)Cc1csc(-c2csc(S(=O)(=O)NCc3ccc(F)cc3F)c2)n1", "s", 1160],
  ["O=C(CN1CC=C(c2cnn(-c3ccccc3)c2)CC1)NCC1CCCO1 (stereo not given)", "s", 612],
  ["COc1ccc(-n2nnc(-c3nc(-c4cccc(OC)c4)cs3)c2N)cc1", "s", 1070],
  ["CC1=C(c2ccc(Cl)cc2)S(=O)(=O)N=C1N1CCCN(C(=O)CC(C)C)CC1", "s", 875],
  ["O=C(Cn1ccn2nc(-c3ccc(F)cc3)c(CO)c2c1=O)NCc1ccc2c(c1)OCO2", "s", 778],
  ["Cn1c(N2CCCN(C(=O)COc3ccc(Cl)cc3)CC2)cc(=O)n(C)c1=O", "s", 658],
  ["CC1CCN(S(=O)(=O)N2CCCC(C(=O)NC3CCN(Cc4ccccc4)CC3)C2)CC1 (stereo not given)", "s", 713],
  ["CC1=C(c2ccc(C)cc2)S(=O)(=O)N=C1N1CCCC1", "s", 816],
  ["O=C(Cn1c(=O)c(CCC(=O)NC2CCCC2)nc2ccccc21)NCc1ccccc1Cl", "s", 842],
  ["O=C(CCc1c[nH]c2ccccc12)N1CCN(C(=O)c2cc(-c3cccnc3)n[nH]2)CC1", "s", 814],
  ["Cc1ccsc1C(=O)N1CCc2[nH]cnc2C12CCCCC2", "s", 606],
  ["O[C@@H]1CCCC[C@H]1N1CCC(c2ccccc2)CC1", "s", 661],
  ["CC(C)(C)C1CCc2[nH]nc(C(N)=O)c2C1 (stereo not given)", "s", 745],
  ["COc1ccccc1N1CCN(C(=O)C2CCN(c3nc(NC(C)=O)ns3)CC2)CC1", "s", 641],
  ["CCC(C)NC(=O)CSc1ccc(-n2nccc2-c2ccc(OC)cc2)nn1 (stereo not given)", "s", 989]
]}

Reference for the values: the METLIN SMRT retention time set (Domingo-Almenara et al. 2019)
